protein stability index values for the variants below.
B1: EPB41L3 (parent)
chain: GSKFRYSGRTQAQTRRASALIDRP

- Variants of: B1
- method-description: protein stability index of a GFP-peptide fusion (GPS, HEK-293T) (PSI 1-6); higher = more stable;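 note: lentivirally expressed fusions sorted by FACS into six bins by GFP to DsRed ratio, PSI derived from sequencing read proportions per bin multiplied by bin number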
- assay-context: c terminus: a fixed tail appended
I only need the number, thanks.

Below, each entry is followed by its recorded protein stability index result.
T14C : 1.88
Q13Y : 2.46
S18L : 3.01
F4Y : 3.56
I21G : 3.9

protein stability index measured on P24G = 3.32

protein stability index measured on K3L = 2.92
